Recorded IC50 for the following compounds
- test.system: CA (Human immunodeficiency virus type 1 group M subtype B, UniProt P12493)
- Construct: a fusion protein of CA with glutathione-S-transferase (CA-GST)
- procedure.details: ALPHA screen (AlphaScreen): inhibition of CAI binding to CA
- Design: species or system HIV-1
- particulars: CAI-biotin peptide / CA-GST; compounds screened at 0.5-100 µM; read-out: α screen IC50
observable: IC50 (µM)

[[record]]
substance_smiles = "Cc1cccc(Nc2nc(-c3ccc(Cl)cc3)nc3ccccc23)c1C"
lt_gt_eq = ">"
result = 200

[[record]]
substance_smiles = "Cc1ccc(S(=O)(=O)NNc2nc(-c3ccc(Cl)cc3)nc3ccccc23)cc1"
lt_gt_eq = ">"
result = 200

[[record]]
substance_smiles = "Cn1nnc2cc(Nc3nc(-c4ccc([N+](=O)[O-])cc4)nc4ccccc34)ccc21"
lt_gt_eq = "="
result = 50.9

[[record]]
substance_smiles = "CN(c1ccc2c(c1)nnn2C)c1nc(-c2ccncc2)nc2ccccc12"
lt_gt_eq = ">"
result = 200

[[record]]
substance_smiles = "Clc1ccc(-c2nc(Nc3cc(Cl)ccc3Cl)c3ccccc3n2)cc1"
lt_gt_eq = ">"
result = 200

[[record]]
substance_smiles = "c1cncc(-c2nc(Nc3ccc4[nH]nnc4c3)c3ccccc3n2)c1"
lt_gt_eq = ">"
result = 200

[[record]]
substance_smiles = "Cn1nnc2cc(Nc3nc(-c4cccnc4)nc4ccccc34)ccc21"
lt_gt_eq = "="
result = 6.4

[[record]]
substance_smiles = "O=[N+]([O-])c1cc(Nc2nc(-c3ccncc3)nc3ccccc23)ccc1F"
lt_gt_eq = "="
result = 2.9

[[record]]
substance_smiles = "FC(F)(F)c1ccc(-c2nc(Nc3ccc4[nH]nnc4c3)c3ccccc3n2)cc1"
lt_gt_eq = "="
result = 53.2

[[record]]
substance_smiles = "Cc1cccc(Nc2nc(-c3cccnc3)nc3ccccc23)c1C"
lt_gt_eq = "="
result = 43.2

[[record]]
substance_smiles = "Fc1ccc(Nc2nc(-c3cccnc3)nc3ccccc23)cc1"
lt_gt_eq = "="
result = 44.4

[[record]]
substance_smiles = "Cc1ccc(S(=O)(=O)NNc2nc(-c3ccncc3)nc3ccccc23)cc1"
lt_gt_eq = "="
result = 156

[[record]]
substance_smiles = "Cc1ccc(S(=O)(=O)NNc2nc(-c3cccnc3)nc3ccccc23)cc1"
lt_gt_eq = "="
result = 119

[[record]]
substance_smiles = "O=[N+]([O-])c1cccc(O)c1Nc1nc(-c2ccncc2)nc2ccccc12"
lt_gt_eq = "="
result = 57.4

